Assay System: Peroxisome proliferator-activated receptor gamma/Nuclear receptor coactivator 1 (Homo sapiens)
Sequence (P37231 whole entry): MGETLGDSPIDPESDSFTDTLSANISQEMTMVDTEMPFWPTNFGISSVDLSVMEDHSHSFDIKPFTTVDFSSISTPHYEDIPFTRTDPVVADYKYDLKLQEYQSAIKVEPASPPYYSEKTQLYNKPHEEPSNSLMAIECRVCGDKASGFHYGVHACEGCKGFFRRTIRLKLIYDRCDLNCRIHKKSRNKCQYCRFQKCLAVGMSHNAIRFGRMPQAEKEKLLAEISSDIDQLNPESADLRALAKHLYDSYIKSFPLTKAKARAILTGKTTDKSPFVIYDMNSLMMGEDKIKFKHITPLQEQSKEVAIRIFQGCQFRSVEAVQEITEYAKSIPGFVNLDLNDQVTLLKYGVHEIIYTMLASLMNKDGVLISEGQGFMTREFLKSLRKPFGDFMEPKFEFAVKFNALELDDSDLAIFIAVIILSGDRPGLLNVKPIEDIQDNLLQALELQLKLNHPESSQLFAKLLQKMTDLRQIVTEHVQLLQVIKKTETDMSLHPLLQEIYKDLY
Sequence (Q15788 whole entry, further chain): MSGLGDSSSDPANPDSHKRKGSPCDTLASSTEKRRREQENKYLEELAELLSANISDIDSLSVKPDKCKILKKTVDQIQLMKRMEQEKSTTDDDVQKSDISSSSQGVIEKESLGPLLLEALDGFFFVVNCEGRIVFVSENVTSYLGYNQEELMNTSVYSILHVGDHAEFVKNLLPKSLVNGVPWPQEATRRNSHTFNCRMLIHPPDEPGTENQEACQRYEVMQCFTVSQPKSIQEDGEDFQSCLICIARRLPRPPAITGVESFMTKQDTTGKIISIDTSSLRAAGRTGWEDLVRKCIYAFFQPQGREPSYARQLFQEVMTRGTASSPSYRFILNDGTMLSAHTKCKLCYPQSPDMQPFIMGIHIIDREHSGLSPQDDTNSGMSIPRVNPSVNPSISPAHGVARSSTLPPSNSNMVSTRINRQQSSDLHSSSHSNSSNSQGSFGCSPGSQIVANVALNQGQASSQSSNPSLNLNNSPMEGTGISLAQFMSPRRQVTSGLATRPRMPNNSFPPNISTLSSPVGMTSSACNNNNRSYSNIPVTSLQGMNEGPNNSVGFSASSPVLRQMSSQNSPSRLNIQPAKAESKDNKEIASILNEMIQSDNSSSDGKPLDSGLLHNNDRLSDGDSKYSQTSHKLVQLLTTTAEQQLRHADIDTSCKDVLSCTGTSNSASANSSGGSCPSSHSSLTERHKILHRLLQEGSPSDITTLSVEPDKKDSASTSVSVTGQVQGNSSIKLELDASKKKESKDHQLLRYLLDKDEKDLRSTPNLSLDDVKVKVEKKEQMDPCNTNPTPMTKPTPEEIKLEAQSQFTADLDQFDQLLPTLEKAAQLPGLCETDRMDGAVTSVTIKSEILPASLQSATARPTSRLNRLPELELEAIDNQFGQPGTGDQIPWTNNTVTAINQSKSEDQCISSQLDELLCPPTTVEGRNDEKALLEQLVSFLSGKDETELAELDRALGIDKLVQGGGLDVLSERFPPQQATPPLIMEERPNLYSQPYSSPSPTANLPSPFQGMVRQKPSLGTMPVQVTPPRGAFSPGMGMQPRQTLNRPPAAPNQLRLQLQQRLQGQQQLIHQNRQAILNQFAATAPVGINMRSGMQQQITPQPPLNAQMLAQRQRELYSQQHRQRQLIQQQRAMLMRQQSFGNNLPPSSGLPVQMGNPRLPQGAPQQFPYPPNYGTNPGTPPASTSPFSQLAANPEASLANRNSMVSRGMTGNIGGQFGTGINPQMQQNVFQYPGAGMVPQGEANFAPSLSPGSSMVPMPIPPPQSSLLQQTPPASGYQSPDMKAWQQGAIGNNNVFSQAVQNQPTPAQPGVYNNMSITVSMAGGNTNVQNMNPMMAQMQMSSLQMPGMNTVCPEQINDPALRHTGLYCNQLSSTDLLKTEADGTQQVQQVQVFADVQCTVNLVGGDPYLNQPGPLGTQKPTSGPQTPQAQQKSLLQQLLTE
Assay Comment: TR-FRET dose response biochemical High Throughput Screening assay for agonists of the steroid receptor coactivator 1 (SRC-1) recruitment by the peroxisome proliferator-activated receptor gamma (PPAR gamma): non-selective agonists. [Related pubchem assays (depositor defined):AID1300, AID1808, AID504735, AID631]
Assay type: protein assay
The source made the active and inactive calls.
# valid calls are yes (1) for active, no (0) for inactive; nothing else

Worked cases, answers included:
| Compound | Group Label |
| --- | --- |
| COc1ccc(NC(C)C(=O)N/N=C/c2ccccc2OCc2cccc(Br)c2)cc1 (stereo unspecified) | no (0) |
| c1ccc2[nH]c(CSc3ncnc4c3oc3ccccc34)nc2c1 | yes (1) |
| CCOC(=O)c1c(C)nsc1S | no (0) |
| CN(Cc1ccccc1)C(=O)CSc1cc(=O)n(C)c2ccccc12 | no (0) |
| CCCCOC(=O)CNc1nnc(S)nc1O | yes (1) |

API: the following record is the query input.
[ask] Can you look up the reported call for CC(=O)CSc1ncnc2c1oc1ccccc12 for me?
[reply] no (0)

###

Assay System: Short transient receptor potential channel 4 (Mus musculus, UniProt Q9QUQ5)
Sequence (Q9QUQ5 whole entry): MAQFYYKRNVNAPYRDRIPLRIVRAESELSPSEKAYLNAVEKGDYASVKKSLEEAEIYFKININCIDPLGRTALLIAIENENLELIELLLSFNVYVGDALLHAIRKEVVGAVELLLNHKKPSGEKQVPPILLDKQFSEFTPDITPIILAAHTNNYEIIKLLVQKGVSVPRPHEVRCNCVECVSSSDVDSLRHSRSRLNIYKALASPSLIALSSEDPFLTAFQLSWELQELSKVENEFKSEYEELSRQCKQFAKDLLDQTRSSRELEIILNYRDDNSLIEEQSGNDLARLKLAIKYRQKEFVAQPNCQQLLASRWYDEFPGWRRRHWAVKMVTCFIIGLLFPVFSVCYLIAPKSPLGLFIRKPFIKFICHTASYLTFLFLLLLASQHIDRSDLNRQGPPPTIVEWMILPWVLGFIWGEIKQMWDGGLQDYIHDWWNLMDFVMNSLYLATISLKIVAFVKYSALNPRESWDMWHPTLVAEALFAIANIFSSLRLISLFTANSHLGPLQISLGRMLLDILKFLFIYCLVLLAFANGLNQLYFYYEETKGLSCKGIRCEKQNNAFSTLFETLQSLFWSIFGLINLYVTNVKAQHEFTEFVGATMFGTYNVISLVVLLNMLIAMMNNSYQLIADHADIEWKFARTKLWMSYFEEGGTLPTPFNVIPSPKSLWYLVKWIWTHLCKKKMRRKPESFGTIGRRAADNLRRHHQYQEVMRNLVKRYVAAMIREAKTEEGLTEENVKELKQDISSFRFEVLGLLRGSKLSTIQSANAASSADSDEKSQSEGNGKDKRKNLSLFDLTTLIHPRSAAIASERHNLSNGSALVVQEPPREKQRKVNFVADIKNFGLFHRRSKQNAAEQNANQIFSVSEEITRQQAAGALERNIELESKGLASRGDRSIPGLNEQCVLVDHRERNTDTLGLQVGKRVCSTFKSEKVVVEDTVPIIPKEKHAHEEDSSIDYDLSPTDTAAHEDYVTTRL
Assay Comment: mouse TRPC4 channel inhibitors, dose response, cell-based, HEK293 TRPC4/mu-opioid, Fluo-4 calcium (AID 434942);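 further: potency of inhibitors blocking the TRPC4 calcium response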
Type: functional
Active and inactive are the calls of the source.
EC50 values, listed per item

Some compounds with known EC50 results, for comparison:
| Compound | EC50 |
| --- | --- |
| NC(=O)c1nsc(C(=O)N(Cc2ccco2)C(C(=O)NCc2ccc(F)cc2)c2ccc(O)cc2)c1N (stereo not drawn) | 105 nM (active) |
| Cc1ccc(Oc2ccccc2/C=N/O)cc1 | 9440 nM (active) |
| COc1ccccc1C(=O)Nc1ccc2c(c1)CCCN2C(=O)c1cccs1 | 3350 nM (active) |
| CN1CCCCc2c1nc1ccccc1c2N.O=C(O)c1cncc(Br)c1 | 668 nM (active) |
| O=C(C[n+]1cccc(CNC(=O)c2ccc(OC(F)F)cc2)c1)Nc1ccc(SC(F)F)cc1 | 7500 nM (active) |
| Cc1n[nH]c(C)c1CCCCOc1ccccc1F | 3760 nM (active) |
| CN(C)c1ccc([N+](=O)[O-])cc1C(=O)NCC(c1ccco1)N(C)C (stereo not drawn) | 299 nM (active) |

Here is another compound to look at.
[ask] State, in one line, measured EC50 of CCOC(=O)C1CCN(CC(O)COc2ccc(C(C)(C)C)cc2)CC1 (stereo not drawn)
[reply] 1880 nM (active)

###

AC50 values, listed per item
Assay System: Microphthalmia-associated transcription factor (Homo sapiens, UniProt O75030)
Sequence (O75030 whole entry): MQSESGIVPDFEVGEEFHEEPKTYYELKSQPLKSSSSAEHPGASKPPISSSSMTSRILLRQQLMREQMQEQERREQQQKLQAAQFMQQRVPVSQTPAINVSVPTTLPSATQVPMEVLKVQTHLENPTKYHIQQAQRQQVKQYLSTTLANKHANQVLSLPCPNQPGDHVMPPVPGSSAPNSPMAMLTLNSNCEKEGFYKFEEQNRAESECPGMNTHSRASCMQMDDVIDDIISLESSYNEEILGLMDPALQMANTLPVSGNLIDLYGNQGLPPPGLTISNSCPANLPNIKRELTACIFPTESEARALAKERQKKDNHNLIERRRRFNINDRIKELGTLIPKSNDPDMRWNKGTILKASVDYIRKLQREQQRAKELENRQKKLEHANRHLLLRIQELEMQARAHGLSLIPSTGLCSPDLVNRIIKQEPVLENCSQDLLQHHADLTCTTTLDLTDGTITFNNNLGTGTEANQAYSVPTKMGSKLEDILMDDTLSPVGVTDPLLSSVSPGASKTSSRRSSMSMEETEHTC
Assay Comment: TRPM1 promoter luciferase signal decrease, dose response, MITF inhibitor project, cell-based, SK-MEL-5, cherry-picked, set 3 (AID 493073);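 further: SK-MEL-5 melanoma cells with luciferase driven by the MITF target TRPM1 promoter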
Format: functional
Active and inactive are the calls of the source.

Some molecules with known AC50 results, for comparison:
| Smiles Entry | Assay System | Value Observed |
| --- | --- | --- |
| Cc1nc(Sc2nnnn2C)c2c3c(sc2n1)CCC3 | Microphthalmia-associated transcription factor (Homo sapiens, UniProt O75030) | 4.98 µM (active) |
| Cc1scc(C(=O)N/N=C/c2ccc([N+](=O)[O-])o2)c1C | Microphthalmia-associated transcription factor (Homo sapiens, UniProt O75030) | 2.19 µM (active) |
| Cn1cc([N+](=O)[O-])c(C(=O)Nc2cc(Oc3ccccc3)cc([N+](=O)[O-])c2)n1 | Microphthalmia-associated transcription factor (Homo sapiens, UniProt O75030) | 12.4 µM (active) |
| O=c1c(Cl)c(Cl)cnn1-c1ccccc1 | Microphthalmia-associated transcription factor (Homo sapiens, UniProt O75030) | 9.54 µM (active) |
| COc1ccc(NS(=O)(=O)c2cc(NC(=O)CNC(=O)c3cccc(OC)c3)ccc2C)cc1 | Microphthalmia-associated transcription factor (Homo sapiens, UniProt O75030) | 11 µM (active) |

[ask] State, in one line, measured AC50 of Cc1nc2ccccc2n1/N=C/c1ccc([N+](=O)[O-])s1
[reply] 3.51 µM (active)

[ask] State, in one line, measured AC50 of Cc1ccc(-n2[nH]c(=O)c(-c3ccccn3)c2C)cc1
[reply] 3.23 µM (active)

[ask] State, in one line, measured AC50 of CCc1ccc(N2C(=O)NC(=O)/C(=C\C=C\c3ccco3)C2=O)cc1
[reply] 7.53 µM (active)

###

Assay System: Estrogen receptor beta (Homo sapiens, UniProt Q92731)
Sequence (Q92731 whole entry): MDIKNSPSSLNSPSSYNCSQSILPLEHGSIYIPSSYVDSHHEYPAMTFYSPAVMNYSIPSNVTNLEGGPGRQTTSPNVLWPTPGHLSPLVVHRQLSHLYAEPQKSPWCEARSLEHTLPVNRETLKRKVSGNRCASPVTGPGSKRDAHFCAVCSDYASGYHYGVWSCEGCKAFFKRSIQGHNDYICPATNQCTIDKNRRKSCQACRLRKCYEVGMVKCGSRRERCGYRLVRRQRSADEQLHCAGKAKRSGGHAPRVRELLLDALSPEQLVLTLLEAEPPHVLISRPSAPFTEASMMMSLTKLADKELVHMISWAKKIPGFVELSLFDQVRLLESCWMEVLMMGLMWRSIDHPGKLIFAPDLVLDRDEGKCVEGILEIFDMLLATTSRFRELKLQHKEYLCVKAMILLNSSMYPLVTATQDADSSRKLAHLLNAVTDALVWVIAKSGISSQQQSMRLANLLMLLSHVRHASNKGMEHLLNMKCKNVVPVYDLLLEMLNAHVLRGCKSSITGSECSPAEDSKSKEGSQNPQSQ
Assay Comment: ERβ–SRC-3 coactivator interaction inhibitors, confirmation, orthogonal assay, biochemical, ELISA, streptavidin-HRP readout (AID 1060)
Quantity Name: IC50

[ask] State, in one line, measured IC50 of O=C(COC(=O)c1ccccc1)NCc1ccco1
[reply] 0.351 µM (not active)

[ask] State, in one line, measured IC50 of Cc1oc2c(cc(NS(=O)(=O)c3ccc4c5c(cccc35)C(=O)N4)c3ccccc32)c1C(=O)OC(C)C
[reply] 0.706 µM (not active)

[ask] State, in one line, measured IC50 of O=S(=O)(NCc1csc(-c2cccnc2)n1)c1ccc(Cl)s1
[reply] 99.4 µM (not active)

[ask] State, in one line, measured IC50 of CC(=N)/C(C#N)=C(/O)CSc1nnc(COc2ccccc2Cl)o1
[reply] 5.64 µM (not active)

[ask] State, in one line, measured IC50 of N=c1c(C(=O)NCc2ccco2)cc2c(=O)n3ccccc3nc2n1CCc1ccccc1
[reply] > 50 µM (not active)

[ask] State, in one line, measured IC50 of CCOC(=O)C1=C(O)/C(=C\c2ccc(CNC(=O)C(=O)Nc3ccccc3)o2)N=C1C
[reply] 1.95 µM (not active)

###

AC50 values, listed per item
Assay System: Paired box protein Pax-8 (Homo sapiens)
Sequence (Q06710 whole entry): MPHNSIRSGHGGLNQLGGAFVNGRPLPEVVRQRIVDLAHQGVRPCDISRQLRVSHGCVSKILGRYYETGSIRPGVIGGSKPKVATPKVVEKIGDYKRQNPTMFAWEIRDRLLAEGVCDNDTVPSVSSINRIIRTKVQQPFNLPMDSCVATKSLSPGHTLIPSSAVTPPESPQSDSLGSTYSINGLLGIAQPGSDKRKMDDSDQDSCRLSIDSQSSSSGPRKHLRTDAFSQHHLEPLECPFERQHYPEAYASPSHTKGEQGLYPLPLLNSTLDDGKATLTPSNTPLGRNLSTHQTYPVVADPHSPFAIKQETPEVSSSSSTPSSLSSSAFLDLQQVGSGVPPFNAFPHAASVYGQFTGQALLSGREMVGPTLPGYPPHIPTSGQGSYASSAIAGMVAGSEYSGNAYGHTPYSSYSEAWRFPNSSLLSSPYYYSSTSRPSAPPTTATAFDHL
Assay Comment: inhibitors of PAX8-driven TPO luciferase reporter, dose response, RMG-I cells, cherry-pick (AID 687027);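 further: luciferase reporter driven by Pax8 target thyroperoxidase promoter measured by SteadyGlo luminescence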
Assay type: functional, cell-based
Active and inactive are the calls of the source.

Some compounds with known AC50 results, for comparison:
| Compound | AC50 |
| --- | --- |
| C[C@H]1CN([C@@H](C)CO)C(=O)Cc2cc(NC(=O)Nc3ccc(F)cc3)ccc2O[C@H]1CN(C)Cc1ccc(Cl)c(Cl)c1 | 7.04 µM (active) |
| Cn1c(CCN2CCCC2)nc2cc(NS(=O)(=O)c3ccccc3)ccc21 | 6.61 µM (active) |
| COc1nn(-c2ccccc2)c(=O)c(Cl)c1Cl | 6.72 µM (active) |
| C=CCC[C@@H](Cc1ccc(F)cc1)C(=O)OC[C@@H](Cc1c[nH]c2ccccc12)NC(=O)[C@H](CC=C)CC(=O)N(CCO)Cc1ccccc1 | 10.9 µM (active) |
| COc1ccc(/C=N/Nc2cc(C)nc3ccc(Br)cc23)cc1 | 8.78 µM (active) |

[ask] Write AC50 of O=S(=O)(c1ccccc1F)N1CC[C@@H]2[C@H](CO)Nc3ccc(C4=CCCCC4)cc3[C@@H]21 ; system used: Paired box protein Pax-8 (Homo sapiens)
[reply] 28.2 µM (active)

[ask] Write AC50 of CCOC(=O)c1cnc2ccc(C(=O)OC)cc2c1Nc1ccc(C(=O)O)cc1 ; system used: Paired box protein Pax-8 (Homo sapiens)
[reply] 66.4 µM (active)

[ask] Write AC50 of COc1ccc(O)c(/C=N/NC(=O)c2ccc(N3CCCC3=O)cc2)c1 ; system used: Paired box protein Pax-8 (Homo sapiens)
[reply] < 0.26 µM (active)

[ask] Write AC50 of COc1ccc2c3c([nH]c2c1)[C@@H](CO)N(C(=O)Nc1cccc(F)c1)CC31CCN(S(=O)(=O)c2cccc(C)c2)CC1 ; system used: Paired box protein Pax-8 (Homo sapiens)
[reply] 6 µM (active)

[ask] Write AC50 of O=c1c(Cl)c(Cl)cnn1-c1ccccc1 ; system used: Paired box protein Pax-8 (Homo sapiens)
[reply] 6.1 µM (active)
